# Tgt: T1, human CD36 ectodomain (residues 35-439), C-terminal 8xHis and biotinylated BAP tag (human, UniProt P16671 35-439, biotin on the BAP tag (in vitro, BirA ligase))
# T1 construct: CD36, human, ectodomain residues 35-439; Construct for SPR; vector pHLsec-8H; also called CD36 wild-type; w.t; source: HEK293T, purified (TALON, size-exclusion chromatography), biotinylated in vitro with BirA; not shown: BAP tag, C-terminal, kept
# Method description: SPR; biotinylated CD36 (wild type or F153A) immobilised on a CAPture chip to ~700 RU; CIDRα domains as analytes, two-fold dilutions from 400 nM (Supplementary Figure 10: 400 nM only), 240 s injection, 300 s dissociation; 25 °C, 20 mM HEPES pH 7.5, 0.15 M NaCl, 0.005% Tween20; affinities from equilibrium binding, one site-binding model
# Measurement conditions: both partners purified
pKd: −log10 of the molar value.
Reported metric: pKd

{"columns": ["Binder", "Test result"],
 "data": [
  ["IT4var12 CIDRα6 domain (domain or fragment, CIDRα6 domain of the PfEMP1 IT4var12, Plasmodium falciparum; also called CIDRα6 IT4var12; IT4var12 (α6)) PWCGLKKQADGTWKRLYENDPQCPIKPKYEPPKGEEPTEIDVLYTGKENKDIIVKLREFCKTDGNTGFKNEEWNCYYQVGNDKCVLENGEELGGEKKVKDYDNFLMFWVAHMLKDSIEWRSKLSNCLKSDKKTCIKKCNDNCKCYEKWIGKKKVEWTQIKKHFDKQTDFQGWGRYFVLETVLEGDQFFTDITKAYGDAREIVHIQEMLQKKKEQVLHEDASNMKTIIDELLDHELKEAKQCIVNHKDNNC", 8.18]
]}
